target: FLT3-ITD (Homo sapiens, UniProt P36888); assay: AlphaScreen kinase assay with recombinant enzyme, FLT3-ITD; conditions: 8pt; read-out: FLT3_ITD 8pt: IC50
pIC50: −log10 of the molar value.

COMPOUND	pIC50
CC(C)(C)NC(=O)c1cccc(-c2cnc3[nH]c(-c4ccccc4)cc3c2)n1	5.00 to 10.00
CNC1CCN(C(=O)c2n[nH]c3ccc(-c4cnc5[nH]c(-c6ccccc6)cc5c4)cc23)C1 (centres unmarked)	5.00 to 10.00
CC(C)(C#N)NC(=O)c1cccc(-c2cnc3[nH]c(-c4cnc(N5CCOCC5)nc4)cc3c2)n1	5.00 to 10.00
O=C(c1cccc(-c2cnc3[nH]c(-c4ccccc4)cc3c2)n1)N1CCC(O)C1 (centres unmarked)	5.00 to 10.00
CC(=O)NC1CCN(C(=O)c2cccc(-c3cnc4[nH]c(-c5ccc(F)cc5)cc4c3)c2)CC1	4.30 to 5.00

* * *

molecular target: FLT3-D835Y (Homo sapiens, UniProt P36888, D835Y); construct: purchased Invitrogen PV3967; assay: AlphaScreen kinase assay with recombinant enzyme, FLT3-D835Y; type: biochemical; conditions: 8pt, GMean
pIC50: −log10 of the molar value.
List of pIC50 values.

COMPOUND	SYSTEM_NAME	pIC50
CC(C)(C#N)NC(=O)c1cccc(-c2cnc3[nH]c(-c4ccc(C5CC5)cc4)cc3c2)n1	FLT3-D835Y (Homo sapiens, UniProt P36888, D835Y)	5.00 to 10.00
CNC1CCN(C(=O)c2cccc(-c3cnc4[nH]c(C5=CCC(C)(C)CC5)cc4c3)n2)C1 (stereo not shown)	FLT3-D835Y (Homo sapiens, UniProt P36888, D835Y)	5.00 to 10.00
N[C@H]1CCN(C(=O)c2cc(-c3cnc4[nH]c(-c5ccccc5)cc4c3)ccn2)C1	FLT3-D835Y (Homo sapiens, UniProt P36888, D835Y)	5.00 to 10.00
NC(=O)Nc1ccc(-c2cnc3[nH]c(-c4ccccc4)cc3c2)cc1	FLT3-D835Y (Homo sapiens, UniProt P36888, D835Y)	4.30 to 5.00
NC1CCN(C(=O)c2c[nH]c3ccc(-c4cnc5[nH]c(-c6ccccc6)cc5c4)cc23)CC1	FLT3-D835Y (Homo sapiens, UniProt P36888, D835Y)	5.00 to 10.00
CC(C)(C#N)NC(=O)c1cccc(-c2cnc3[nH]c(-c4ccc(C5CC5)nc4)cc3c2)n1	FLT3-D835Y (Homo sapiens, UniProt P36888, D835Y)	5.00 to 10.00
CC(C)(C#N)NC(=O)c1cccc(-c2cnc3[nH]c(-c4cccc(N5CCCS5(=O)=O)c4)cc3c2)n1	FLT3-D835Y (Homo sapiens, UniProt P36888, D835Y)	5.00 to 10.00
CNC(=O)C1CCN(C(=O)c2cccc(-c3cnc4[nH]c(-c5ccccc5)cc4c3)n2)CC1	FLT3-D835Y (Homo sapiens, UniProt P36888, D835Y)	5.00 to 10.00
CC(C)(C#N)NC(=O)c1cccc(-c2cnc3[nH]c(-c4ccc(F)cc4)cc3c2)n1	FLT3-D835Y (Homo sapiens, UniProt P36888, D835Y)	5.00 to 10.00
N#CCCNC(=O)c1cccc(-c2cnc3[nH]c(-c4ccccc4)c(I)c3c2)n1	FLT3-D835Y (Homo sapiens, UniProt P36888, D835Y)	5.00 to 10.00
N#CC1CCN(C(=O)c2cccc(-c3cnc4[nH]c(C5=CCOCC5)cc4c3)n2)C1 (stereo not shown)	FLT3-D835Y (Homo sapiens, UniProt P36888, D835Y)	5.00 to 10.00
CC(C)(C#N)NC(=O)c1cccc(-c2cnc3[nH]c(C4=CCSCC4)cc3c2)n1	FLT3-D835Y (Homo sapiens, UniProt P36888, D835Y)	5.00 to 10.00
CC(C)(C#N)NC(=O)c1cccc(-c2cnc3[nH]c(-c4cscn4)cc3c2)n1	FLT3-D835Y (Homo sapiens, UniProt P36888, D835Y)	5.00 to 10.00
NC1CCN(c2cccc3ccc(-c4cnc5[nH]c(-c6ccccc6)cc5c4)nc23)CC1	FLT3-D835Y (Homo sapiens, UniProt P36888, D835Y)	5.00 to 10.00
O=S(=O)(NC1CC1)c1cccc(-c2cnc3[nH]c(-c4ccccc4)cc3c2)n1	FLT3-D835Y (Homo sapiens, UniProt P36888, D835Y)	5.00 to 10.00
CN1CCC(NC(=O)c2cccc(-c3cnc4[nH]c(-c5ccccc5)cc4c3)n2)C1 (stereo not shown)	FLT3-D835Y (Homo sapiens, UniProt P36888, D835Y)	5.00 to 10.00

* * *

biological target: UniProt P10721; assay: AlphaScreen kinase assay with recombinant enzyme, c-KIT; conditions: 100ATP, 8pt, GMean
pIC50: −log10 of the molar value.
A collection of compounds and their measured pIC50
PROPERTY_LABEL: pIC50

COMPOUND	SYSTEM_NAME	RECORDED_RESULT
CC(C)(C#N)NC(=O)c1cccc(-c2cnc3[nH]c(-c4cnc(C(C)(C)O)nc4)cc3c2)n1 [Compound P-0211]	UniProt P10721	4.00 to 4.30
N#CC1(NC(=O)c2cccc(-c3cnc4[nH]c(-c5ccccc5)cc4c3)n2)CCC1 [Compound P-0114]	UniProt P10721	4.00 to 4.30
CC1CCN(C(=O)c2n[nH]c3ccc(-c4cnc5[nH]c(-c6ccccc6)cc5c4)cc23)CC1 [Compound P-0027]	UniProt P10721	4.00 to 4.30
CNC1CCN(C(=O)c2cccc(-c3cnc4[nH]c(-c5cn(C)nc5C)cc4c3)n2)C1 (centres unmarked) [Compound P-0049]	UniProt P10721	5.00 to 10.00
O=C(c1cccc(-c2cnc3[nH]c(-c4ccccc4)cc3c2)n1)N1CCC(F)(F)C1 [Compound P-0093]	UniProt P10721	4.00 to 4.30

* * *

target: c-KIT (Homo sapiens); assay: AlphaScreen kinase assay with recombinant enzyme, c-KIT; conditions: 100ATP, 8pt, GMean
Sequence (P10721 26-976): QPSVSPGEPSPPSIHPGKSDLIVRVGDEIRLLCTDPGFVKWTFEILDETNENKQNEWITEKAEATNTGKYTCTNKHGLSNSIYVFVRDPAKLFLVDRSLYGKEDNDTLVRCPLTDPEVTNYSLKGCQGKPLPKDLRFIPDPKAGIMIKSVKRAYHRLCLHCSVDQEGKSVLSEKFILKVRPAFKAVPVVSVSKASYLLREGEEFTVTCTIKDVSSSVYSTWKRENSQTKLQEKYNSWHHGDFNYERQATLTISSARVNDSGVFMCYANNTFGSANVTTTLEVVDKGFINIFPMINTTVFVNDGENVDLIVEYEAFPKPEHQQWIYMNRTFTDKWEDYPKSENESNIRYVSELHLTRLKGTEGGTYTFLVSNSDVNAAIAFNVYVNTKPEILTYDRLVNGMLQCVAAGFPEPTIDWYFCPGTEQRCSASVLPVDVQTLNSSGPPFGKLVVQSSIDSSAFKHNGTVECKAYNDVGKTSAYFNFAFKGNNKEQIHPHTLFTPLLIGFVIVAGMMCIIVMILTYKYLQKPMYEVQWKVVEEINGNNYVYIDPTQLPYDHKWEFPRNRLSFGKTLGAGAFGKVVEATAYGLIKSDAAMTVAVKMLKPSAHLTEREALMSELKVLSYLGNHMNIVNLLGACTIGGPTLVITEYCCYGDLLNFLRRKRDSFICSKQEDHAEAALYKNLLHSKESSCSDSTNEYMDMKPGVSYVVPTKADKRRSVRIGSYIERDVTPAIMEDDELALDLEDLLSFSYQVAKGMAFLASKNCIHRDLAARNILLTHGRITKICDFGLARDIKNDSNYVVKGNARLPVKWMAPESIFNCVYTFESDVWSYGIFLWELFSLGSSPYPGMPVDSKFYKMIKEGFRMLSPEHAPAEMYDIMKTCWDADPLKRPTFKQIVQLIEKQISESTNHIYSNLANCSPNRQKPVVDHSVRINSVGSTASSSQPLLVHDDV
pIC50: −log10 of the molar value.
Reported pIC50 values follow for various compounds

COMPOUND	pIC50
CNC1CCN(C(=O)c2cccc(-c3cnc4[nH]c(C5=CCC(C)(C)CC5)cc4c3)n2)C1 (stereo not drawn)	5.00 to 10.00
COC1CCN(C(=O)c2cccc(-c3cnc4[nH]c(-c5ccccc5)cc4c3)n2)C1 (stereo not drawn)	4.30 to 5.00
COC(=O)C1(C)CCN(C(=O)c2cccc(-c3cnc4[nH]c(-c5ccccc5)cc4c3)n2)CC1	4.00 to 4.30
CC(=O)NC1CCN(C(=O)c2n[nH]c3ccc(-c4cnc5[nH]c(-c6ccccc6)cc5c4)cc23)CC1	4.00 to 4.30
O=S(=O)(NC1CC1)c1cccc(-c2cnc3[nH]c(-c4ccccc4)cc3c2)n1	4.00 to 4.30
O=C(c1cccc(-c2cnc3[nH]c(-c4ccccc4)cc3c2)n1)N1CCC(O)C1 (stereo not drawn)	5.00 to 10.00
Cc1ccc(-c2cnc3[nH]c(-c4ccccc4)cc3c2)nc1C(=O)N1CCC(N)CC1	5.00 to 10.00
CC(C)(C#N)NC(=O)c1cccc(-c2cnc3[nH]c(-c4ccc(C(F)(F)F)nc4)cc3c2)n1	4.00 to 4.30
CS(=O)(=O)NC1CCN(C(=O)c2cccc(-c3cnc4[nH]c(-c5ccccc5)cc4c3)n2)C1 (stereo not drawn)	4.00 to 4.30
c1ccc(-c2cc3cc(-c4ccc5[nH]nc(NC6CNC6)c5c4)cnc3[nH]2)cc1	5.00 to 10.00
O=C(NC1CCNCC1)c1n[nH]c2ccc(-c3cnc4[nH]c(-c5ccccc5)cc4c3)cc12	5.00 to 10.00
O=C(c1cccc(-c2cnc3[nH]c(-c4ccccc4)cc3c2)n1)N1CCC(n2ccnc2)C1 (stereo not drawn)	5.00 to 10.00
CC(=O)NC1CCN(C(=O)c2cccc(-c3cnc4[nH]c(-c5ccccc5)cc4c3)n2)CC1	5.00 to 10.00
N#C[C@H]1CCN(C(=O)c2cccc(-c3cnc4[nH]c(-c5ccccc5)cc4c3)n2)C1	5.00 to 10.00
NC1CCC(NC(=O)c2cccc(-c3cnc4[nH]c(-c5ccccc5)cc4c3)n2)CC1 (stereo not drawn)	5.00 to 10.00

* * *

Listing of entries alongside the reported IC50.
target: c-KIT (Homo sapiens); assay: AlphaScreen kinase assay with recombinant enzyme, c-KIT; details: 100ATP, 8pt, GMean

COMPOUND	IC50
CNC1CCN(C(=O)c2cccc(-c3cnc4[nH]c(-c5ccccc5)cc4c3)n2)C1 (stereo not drawn)	0.0001 to 10 µM
c1ccc(-c2cc3cc(-c4ccc5[nH]nc(NC6CCNCC6)c5c4)cnc3[nH]2)cc1	0.0001 to 10 µM
CC(C)(C#N)CNC(=O)c1cccc(-c2cnc3[nH]c(-c4ccccc4)cc3c2)n1	10 to 50 µM
NC1CCN(c2cccc3ccc(-c4cnc5[nH]c(-c6ccccc6)cc5c4)nc23)CC1	0.0001 to 10 µM
O=C(c1cccc(-c2cnc3[nH]c(-c4ccccc4)cc3c2)n1)N1CCC(N2CCOCC2)C1 (stereo not drawn)	50 to 100 µM
CNC1CCN(C(=O)c2cccc(-c3cnc4[nH]c(-c5cccc(C#N)c5)cc4c3)n2)C1 (stereo not drawn)	10 to 50 µM
CC(C)(C#N)NC(=O)c1cccc(-c2cnc3[nH]c(-c4ccnc(F)c4)cc3c2)n1	50 to 100 µM
O=C(c1ccc(-c2cnc3[nH]c(-c4ccccc4)cc3c2)s1)N1CCC(n2ccnc2)C1 (stereo not drawn)	10 to 50 µM
Cc1cc(-c2cc3cc(-c4cccc(C(=O)NC(C)(C)C#N)n4)cnc3[nH]2)ccn1	50 to 100 µM
CN(C)C1CCN(C(=O)c2cccc(-c3cnc4[nH]c(-c5ccccc5)cc4c3)n2)C1 (stereo not drawn)	0.0001 to 10 µM
O=C(c1cccc(-c2cnc3[nH]c(-c4ccccc4)cc3c2)n1)N1CCC(C(F)(F)F)C1 (stereo not drawn)	50 to 100 µM
CN1CCC(NC(=O)c2cccc(-c3cnc4[nH]c(-c5ccccc5)cc4c3)n2)C1 (stereo not drawn)	0.0001 to 10 µM
CNC1CCN(C(=O)c2cccc(-c3cnc4[nH]c(-c5ccc(F)cc5)cc4c3)n2)C1 (stereo not drawn)	0.0001 to 10 µM
N[C@H]1CCN(C(=O)c2ncc(-c3cnc4[nH]c(-c5ccccc5)cc4c3)s2)C1	0.0001 to 10 µM
NC1CCN(C(=O)c2n[nH]c3ccc(-c4cnc5[nH]c(-c6ccccc6)cc5c4)cc23)CC1	0.0001 to 10 µM
NC1CCC(C(=O)N2Cc3c(cccc3-c3cnc4[nH]c(-c5ccccc5)cc4c3)C2=O)C1 (stereo not drawn)	0.0001 to 10 µM
O=C(O)C1CCN(C(=O)c2cccc(-c3cnc4[nH]c(-c5ccccc5)cc4c3)n2)CC1	10 to 50 µM
CONC(=O)c1cccc(-c2cnc3[nH]c(-c4ccccc4)cc3c2)c1	0.0001 to 10 µM
NC1CN(C(=O)c2n[nH]c3ccc(-c4cnc5[nH]c(-c6ccccc6)cc5c4)cc23)C1	0.0001 to 10 µM
COC1CN(C(=O)c2cccc(-c3cnc4[nH]c(-c5ccccc5)cc4c3)n2)C1	50 to 100 µM
N[C@H]1CCN(C(=O)c2n[nH]c3ccc(-c4cnc5[nH]c(-c6ccccc6)cc5c4)cc23)C1	0.0001 to 10 µM
CC1(C#N)CCN(C(=O)c2cccc(-c3cnc4[nH]c(-c5ccccc5)cc4c3)n2)CC1	50 to 100 µM
CNC1CCN(S(=O)(=O)c2cccc(-c3cnc4[nH]c(-c5ccccc5)cc4c3)n2)C1 (stereo not drawn)	0.0001 to 10 µM
CC(=O)NC1CCN(C(=O)c2cccc(-c3cnc4[nH]c(-c5ccc(F)cc5)cc4c3)c2)CC1	0.0001 to 10 µM
CC(C)(C#N)CNC(=O)c1cccc(-c2cnc3[nH]c(-c4cnn(CC(F)(F)F)c4)cc3c2)n1	0.0001 to 10 µM
O=C(c1cccc(-c2cnc3[nH]c(-c4ccccc4)cc3c2)n1)C1CCNCC1	0.0001 to 10 µM
Cn1cc(NC(=O)c2cccc(-c3cnc4[nH]c(-c5ccccc5)cc4c3)n2)cn1	10 to 50 µM
NC1CCC(NS(=O)(=O)c2cccc(-c3cnc4[nH]c(-c5ccccc5)cc4c3)n2)CC1 (stereo not drawn)	0.0001 to 10 µM
c1ccc(-c2cc3cc(-c4ccc5[nH]nc(NC6CCNC6)c5c4)cnc3[nH]2)cc1 (stereo not drawn)	0.0001 to 10 µM
N#CC1(F)CCN(C(=O)c2cccc(-c3cnc4[nH]c(-c5ccccc5)cc4c3)n2)C1 (stereo not drawn)	50 to 100 µM
